system: DLD1; test: TCF/Wnt firefly luciferase reporter signal relative to plate median (fraction of plate median); higher = higher Wnt reporter signal; details: 10 µM; treatment time 24 h; reporter: 7TFP
Metric: TCF/Wnt firefly luciferase reporter signal
Answers are plain numbers.

I would be grateful if you could provide TCF/Wnt firefly luciferase reporter signal for each of the following entries.
1. O=C(NOCC1CC1)c1ccc(F)c(F)c1Nc1ccc(I)cc1Cl
2. NC(=O)Nc1cc(-c2cccc(F)c2)sc1C(=O)N[C@H]1CCCNC1
3. COCCOc1ccc2c(c1)ncn2-c1ccc2cccc(N3CCC(N)CC3)c2n1
4. COc1cccc2cc(-c3nc([C@H]4CC[C@H](C(=O)O)CC4)n4ncnc(N)c34)[nH]c12
5. O=C(NCCCNc1nc(Nc2cccc(NC(=O)N3CCCC3)c2)ncc1I)c1cccs1

Reply:
1. 1.2
2. 0.667
3. 1.54
4. 0.442
5. 0.81

====

Give measured TCF/Wnt firefly luciferase reporter signal for each item. Keep answers brief.
system: DLD1; experiment: TCF/Wnt firefly luciferase reporter signal relative to plate median (fraction of plate median); higher = higher Wnt reporter signal; conditions: 5 µM; treatment time 24 h; reporter: 7TFP
Numbers only.

Please review the following examples before continuing.
{"Compound": "CC(C)Cn1c(=O)n(C)c(=O)c2nc[nH]c21", "Value measured": 0.972}
{"Compound": "O=c1c(O)c(-c2ccc(O)cc2O)oc2cc(O)cc(O)c12", "Value measured": 1.11}
{"Compound": "N=C(N)NCCCCNC(=N)N", "Value measured": 0.994}

I would be grateful if you could provide TCF/Wnt firefly luciferase reporter signal for each of the following entries.
1. CC(C)[C@H]1CC[C@H](C(=O)N[C@H](Cc2ccccc2)C(=O)O)CC1
2. C/C=C(\CO)C(=O)O[C@H]1[C@H](O)[C@@H](C(=O)OC)O[C@@H]2C[C@H]3O[C@@H](n4cnc5c(N)ncnc54)[C@H](OC)[C@H]3O[C@]21O [Herbicidin A]

Reply:
[1.03, 0.933]

====

system: DLD1; test: cell viability (CellTiter-Glo) relative to plate median (fraction of plate median); higher = more viable cells; details: 5 µM; treatment time 24 h; reporter: 7TFP
Give measured cell viability for each item. Keep answers brief.
Numbers only.

Please review the following examples before continuing.
{"Compound": "CN1CCN(CCCN2c3ccccc3Sc3ccc(Cl)cc32)CC1", "cell viability": 1.02}
{"Compound": "CC1(C)CC2C1CC[C@]1(CBr)CCC3C(CC(=O)O)C(=O)O[C@@]32C1 (stereo partly specified) [BROMO-3-HYDROXY-4-(SUCCIN-2-YL)-CARYOLANE gamma-LACTONE]", "cell viability": 0.95}
{"Compound": "CC(=O)OCC1=C(C(=O)O)N2C(=O)[C@@H](NC(=O)CSc3ccncc3)[C@H]2SC1", "cell viability": 1.05}
{"Compound": "COc1ccc(C(=O)c2ccccc2O)c(O)c1", "cell viability": 0.953}
{"Compound": "CC(=O)Nc1ccc(S(=O)(=O)c2ccc(NC(C)=O)cc2)cc1", "cell viability": 0.966}
{"Compound": "OC(CCN1CCCCC1)(c1ccccc1)c1ccccc1", "cell viability": 0.982}
{"Compound": "O=c1cc(-c2ccccc2)oc2cc(O)cc(O)c12", "cell viability": 1.01}
{"Compound": "COc1c2ccoc2cc2oc(=O)ccc12", "cell viability": 1.02}

I would be grateful if you could provide cell viability for each of the following entries.
1. Cc1cc(C)cc(OCC2CNC(=O)O2)c1 (stereo unspecified)
2. COc1c(-c2ccccc2)oc2c(ccc3occc32)c1=O
3. Nc1ccc(S(N)(=O)=O)cc1

Reply:
0.964
1.03
1.04
